Parameter CC50: see the listing below.
# Test name: in vitro
# Test settings: African green monkey

Example entries begin here.
* C[C@@H]1COCCN1c1cc(N2CCN(S(=O)(=O)Cc3ccc(F)cc3)CC2C(F)(F)F)[nH]c(=O)c1 (stereo partly shown) [Compound 3] | > 10 µM
* C[C@@H]1COCCN1c1cc(N2CCN(S(=O)(=O)c3cncc(F)c3)CC2C(F)(F)F)[nH]c(=O)c1 (stereo partly shown) [Compound 2] | > 10 µM
* C[C@@H]1COCCN1c1cc(N2CCN(S(=O)(=O)N(C)C)CC2C(F)(F)F)[nH]c(=O)c1 (stereo partly shown) [Compound 4] | > 10 µM

Q: // fetch CC50 given entry C[C@@H]1COCCN1c1cc(N2CCN(S(=O)(=O)N3CCCC3)CC2C(F)(F)F)[nH]c(=O)c1 (stereo partly shown) [Compound 1]
Result: 29 µM

----------
# Test name: in vitro
# Test settings: human
Reported endpoint: CC50 (µM)
# value in µM; strip the unit string

* C[C@@H]1COCCN1c1cc(N2CCN(S(=O)(=O)Cc3ccc(F)cc3)CC2C(F)(F)F)[nH]c(=O)c1 (stereo partly shown) | 5160

// moving on: another record for CC50
Q: Respond only with CC50 recorded for C[C@@H]1COCCN1c1cc(N2CCN(S(=O)(=O)N3CCCC3)CC2C(F)(F)F)[nH]c(=O)c1 (stereo partly shown)
Result: 24
